Task for the reader: assign each of the following compounds its reported viability, T/C.
Tested on: 439559-082-T-J2-PDC spheroids viability
MEASUREMENT DESCRIPTION: Anticancer human tumor 439559-082-T-J2-PDC patient-derived colon adenocarcinoma cell line growth inhibition [GQUAD]
CONDITIONS USED: second compound 0.0316 µM; first compound 0.1 µM; stronger effect = lower value
Give your result in % as a bare value.

*Q* Give the reported viability, T/C for this compound. C=CCn1c(=O)c2cnc(Nc3ccc(N4CCN(C)CC4)cc3)nc2n1-c1cccc(C(C)(C)O)n1 + Cc1cnc(CNC(=O)c2c(=O)c3ccc(N4CCCN(C)CC4)nc3n3c2sc2ccccc23)cn1
*A* 93.7

*Q* Give the measured viability, T/C for O=c1[nH]cc(F)c(=O)[nH]1 + Cc1cnc(CNC(=O)c2c(=O)c3ccc(N4CCCN(C)CC4)nc3n3c2sc2ccccc23)cn1
*A* 102

*Q* Please give the documented viability, T/C of COc1ccc([C@@H](O)c2cc(-c3ncnc4cc(N5CCOCC5)ccc34)c(F)cc2Cl)nn1 + CN(C)c1ccc(Nc2c3ccc(NC(=O)CCN4CCCC4)cc3nc3cc(NC(=O)CCN4CCCC4)ccc23)cc1
*A* 98.3

*Q* Give reported viability, T/C value for O=C(NO)c1cnc(N2CCN(S(=O)(=O)c3ccc4ccccc4c3)CC2)nc1 + CN(C)c1ccc(Nc2c3ccc(NC(=O)CCN4CCCC4)cc3nc3cc(NC(=O)CCN4CCCC4)ccc23)cc1
*A* 83.4

*Q* Annotate the compound CC1COCCN1c1cc(C2(S(C)(=N)=O)CC2)nc(-c2ccnc3[nH]ccc23)n1 (stereo not given) + Cc1cnc(CNC(=O)c2c(=O)c3ccc(N4CCCN(C)CC4)nc3n3c2sc2ccccc23)cn1 with its measured viability, T/C.
*A* 86.3

---

Test system: 439559-082-T-J2-PDC spheroids viability
MEASUREMENT DESCRIPTION: Anticancer human tumor 439559-082-T-J2-PDC cell line growth inhibition [GQUAD];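 further: spheroids exposed to the agents for 7 days before readout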
CONDITIONS USED: curve of first compound; second compound 0.0316 µM
Give IC50 for every item shown.

*Q* Output measured IC50 for this item: COc1cccc2c1C(=O)c1c(O)c3c(c(O)c1C2=O)CC(O)(C(=O)CO)CC3OC1CC(N)C(O)C(C)O1 (stereo unspecified) + Cc1[nH]c2ccc(F)cc2c1-c1nc2c3cccnc3c3ncccc3c2[nH]1
*A* > 10 µM

*Q* Return IC50 (reported value) for this compound: COc1cc(C2c3cc4c(cc3C(OC3OC5COC(C)OC5C(O)C3O)C3COC(=O)C23)OCO4)cc(OC)c1O (stereo unspecified) + Cc1[nH]c2ccc(F)cc2c1-c1nc2c3cccnc3c3ncccc3c2[nH]1
*A* > 10 µM

*Q* // Input: C=CC(=O)N1CCN(c2nc(=O)n(-c3c(C)ccnc3C(C)C)c3nc(-c4c(O)cccc4F)c(F)cc23)C(C)C1 (stereo unspecified) + Cc1[nH]c2ccc(F)cc2c1-c1nc2c3cccnc3c3ncccc3c2[nH]1 . Output its IC50 only.
*A* > 10 µM

*Q* Hello, please tell me recorded IC50 for this one: COc1ncnc(C2CC2)c1-c1ncc2cnn(Cc3ccc(-c4nc(C(F)(F)F)cn4C(C)C)cc3)c2n1 + Cc1cnc(CNC(=O)c2c(=O)c3ccc(N4CCCN(C)CC4)nc3n3c2sc2ccccc23)cn1
*A* > 10 µM

*Q* Kindly indicate its recorded IC50. Item: O=C(c1cc(Cc2n[nH]c(=O)c3ccccc23)ccc1F)N1CCN(C(=O)C2CC2)CC1 + Cc1[nH]c2ccc(F)cc2c1-c1nc2c3cccnc3c3ncccc3c2[nH]1
*A* > 10 µM

*Q* Could you please provide reported IC50 for CC(C)(O)C1CCC(Nc2ccc3ncc(-c4cccc(C(F)(F)F)c4)n3n2)CC1 (stereo unspecified) + Cc1[nH]c2ccc(F)cc2c1-c1nc2c3cccnc3c3ncccc3c2[nH]1 ? Thanks!
*A* > 10 µM

*Q* Return reported IC50. Input compound: Cc1[nH]c2ccccc2c1CCNCc1ccc(/C=C/C(=O)NO)cc1 + Cc1cnc(CNC(=O)c2c(=O)c3ccc(N4CCCN(C)CC4)nc3n3c2sc2ccccc23)cn1
*A* > 0.316 µM

*Q* Please indicate IC50 recorded for CC(C)n1c(=O)n(C)c2cnc3cc(F)c(-c4ccc(OCCCN5CCCCC5)nc4)cc3c21 + CN(C)c1ccc(Nc2c3ccc(NC(=O)CCN4CCCC4)cc3nc3cc(NC(=O)CCN4CCCC4)ccc23)cc1
*A* > 10 µM

*Q* For the compound CC1COCCN1c1cc(C2(S(C)(=N)=O)CC2)nc(-c2ccnc3[nH]ccc23)n1 (stereo unspecified) + CN(C)c1ccc(Nc2c3ccc(NC(=O)CCN4CCCC4)cc3nc3cc(NC(=O)CCN4CCCC4)ccc23)cc1 , report IC50.
*A* > 10 µM

*Q* Check the records and state IC50 for C=CC(=O)N1CCN(c2nc(=O)n(-c3c(C)ccnc3C(C)C)c3nc(-c4c(O)cccc4F)c(F)cc23)C(C)C1 (stereo unspecified) + CN(C)c1ccc(Nc2c3ccc(NC(=O)CCN4CCCC4)cc3nc3cc(NC(=O)CCN4CCCC4)ccc23)cc1
*A* > 10 µM

*Q* Could you please provide reported IC50 for COc1cc(C2c3cc4c(cc3C(OC3OC5COC(C)OC5C(O)C3O)C3COC(=O)C23)OCO4)cc(OC)c1O (stereo unspecified) + Cc1cnc(CNC(=O)c2c(=O)c3ccc(N4CCCN(C)CC4)nc3n3c2sc2ccccc23)cn1 ? Thanks!
*A* > 10 µM
